Counter-ions that a name gives are not always drawn.
melting point values by entry
measure.name: melting point

compound="CCNCCCNCC1CCC1CNCCCNCC (centres unmarked) (as salt: hydrochloride)" measure_name="melting point" readout_value="77 to 78 °C"
compound="CCNCCCNC[C@@H]1C[C@@H]1CNCCCNCC (as salt: hydrochloride)" measure_name="melting point" readout_value="240 °C (dec.)"
compound="CCNCCCNC[C@H]1CC[C@H]1CNCCCNCC (as salt: hydrochloride)" measure_name="melting point" readout_value="92 to 93 °C"
compound="CCNCCCNC1CC1NCCCNCC (centres unmarked)" measure_name="melting point" readout_value="240 °C (dec.)"
compound="CCNCCCNCC1CC1CNCCCNCC (centres unmarked) (as salt: hydrochloride)" measure_name="melting point" readout_value="270 °C (dec.)"
